# experiment.summary: Cytotoxicity in mock-infected MT4 CMV-EGFP cells
# Format: cell-based, human
# condition.description: human, fluorescence reduced by 50%
Each entry below carries its recorded CC50 at 3 days.
readout.label: CC50 at 3 days

- N#Cc1cc2ccc(O)cc2n(-c2ccc([N+](=O)[O-])cc2)c1=O: > 32 µM
- N#Cc1cc2cccnc2n(-c2ccc([N+](=O)[O-])cc2)c1=O: > 32 µM
- Cc1ccc(-n2c(=O)c(C#N)cc3ccc(-c4ccccn4)cc32)cc1C#N: 86 µM
- N#Cc1cc2ccccc2n(-c2ccc([N+](=O)[O-])cc2)c1=O: > 100 µM
- Cc1ccc(-n2c(=O)c(C#N)cc3ccc(Br)cc32)cc1C#N: > 100 µM
- N#Cc1c(N)c2ccccc2n(-c2ccc([N+](=O)[O-])cc2)c1=O: > 32 µM
- N#Cc1cc2ccc(-c3ccccc3)cc2n(-c2ccc([N+](=O)[O-])cc2)c1=O: > 32 µM
- N#Cc1cc2ccc(N)cc2n(-c2ccc([N+](=O)[O-])cc2)c1=O: > 32 µM
- Cc1ccc(-n2c(=O)c(C#N)cc3ccccc32)cc1C#N: > 100 µM
- COc1ccc2cc(C#N)c(=O)n(-c3ccc(C)c(C#N)c3)c2c1: > 100 µM
- Cc1ccc(-n2c(=O)c(C#N)cc3ccc(OCCCN(C)C)cc32)cc1C#N: 83.9 µM
- Cc1ccc(-n2c(=O)c(C#N)cc3ccc(OCCCN4CCCC4)cc32)cc1C#N: 51.5 µM

====

# Test system: MT4 CMV-EGFP cells
# experiment.summary: Cytotoxicity in mock-infected MT4 CMV-EGFP cells
# Format: cell-based, human
# condition.description: fluorescence reduced by 50%
Threshold-based label: CC50 under 20 µM gives Criterion met, CC50 not under 20 µM gives Criterion not met.

- N#Cc1cc2cc(OC[C@@H]3CCCN3)ccc2n(-c2ccc([N+](=O)[O-])cc2)c1=O [compound 88]: Criterion met
- N#Cc1cc2ccc(OCCN3CCNCC3)cc2n(-c2ccc([N+](=O)[O-])cc2)c1=O [compound 61]: Criterion not met
- N#Cc1cc2ccc(NCCCN)cc2n(-c2ccc([N+](=O)[O-])cc2)c1=O [compound 19]: Criterion not met
- N#Cc1c(NCCCN2CCCC2)c2ccccc2n(-c2ccc([N+](=O)[O-])cc2)c1=O [compound 132]: Criterion met
- CCC(CC)NCCCOc1ccc2cc(C#N)c(=O)n(-c3ccc([N+](=O)[O-])cc3)c2c1 [compound 68]: Criterion not met
- CN(C)CCCOc1ccc2c(c1)cc(C#N)c(=O)n2-c1ccc([N+](=O)[O-])cc1 [compound 85]: Criterion not met
- Cc1ccc(-n2c(=O)c(C#N)cc3ccc(-c4cccc(CO)c4)cc32)cc1C#N [compound 156]: Criterion not met
- Cc1ccc(-n2c(=O)c(C#N)c(N)c3ccc(-c4cccs4)cc32)cc1C#N [compound 126]: Criterion not met
- CCN(CC)CCCOc1ccc2cc(C#N)c(=O)n(-c3ccc([N+](=O)[O-])cc3)c2c1 [compound 66]: Criterion not met
- N#Cc1c(NCCCO)c2ccccc2n(-c2ccc([N+](=O)[O-])cc2)c1=O [compound 138]: Criterion not met
- COc1cc2c(N)c(C#N)c(=O)n(-c3ccc([N+](=O)[O-])cc3)c2cc1OC [compound 109]: Criterion not met
- CN(C)Cc1cccc(-c2ccc3cc(C#N)c(=O)n(-c4ccc([N+](=O)[O-])cc4)c3c2)c1 [compound 45]: Criterion met

====

# Tested on: wild-type HIV-IIIB strain
# experiment.summary: Antiviral analysis EGFP: anti-HIV activity in MT4 LTR-EGFP cells
# Type: cell-based, HIV-1
# condition.description: fluorescence of HIV-infected cells reduced by 50%, three days after infection
pEC50: −log10 of the molar value.
Param threshold (6) applies to pEC50; output Satisfied when value >= threshold, Not satisfied when value < threshold.

* CC(=O)Nc1cccc(-c2ccc3cc(C#N)c(=O)n(-c4ccc(C)c(C#N)c4)c3c2)c1 | Not satisfied
* CNc1c(C#N)c(=O)n(-c2ccc([N+](=O)[O-])cc2)c2ncccc12 | Not satisfied
* CNCCCNc1ccc2cc(C#N)c(=O)n(-c3ccc([N+](=O)[O-])cc3)c2c1 | Satisfied
* N#Cc1c(N)c2cccnc2n(-c2ccc([N+](=O)[O-])cc2)c1=O | Not satisfied
* N#Cc1cc2ccccc2n(-c2ccc(Cl)nc2)c1=O | Not satisfied
* Cc1ccc(-n2c(=O)c(C#N)cc3ccc(Cl)cc32)cc1C#N | Not satisfied
* N#Cc1cc2ccc(-c3cccc(CO)c3)cc2n(-c2ccc([N+](=O)[O-])cc2)c1=O | Satisfied
* N#Cc1cc2ccc(-c3cccc(CN)c3)cc2n(-c2ccc([N+](=O)[O-])cc2)c1=O | Satisfied
* N#Cc1c(N)c2ccc(Cl)cc2n(-c2ccc(Cl)c(F)c2)c1=O | Not satisfied
* N#Cc1cc2ccc(-c3ccc(C(N)=O)cc3)cc2n(-c2ccc([N+](=O)[O-])cc2)c1=O | Not satisfied
* N#Cc1cc2ccc(OCCN3CCOCC3)cc2n(-c2ccc([N+](=O)[O-])cc2)c1=O | Not satisfied
* N#Cc1cc2ccc(OCCCN)cc2n(-c2ccc(Cl)nc2)c1=O | Not satisfied
* N#Cc1c(NCCCn2ccnc2)c2ccccc2n(-c2ccc([N+](=O)[O-])cc2)c1=O | Not satisfied
* N#Cc1cc2ccc(-c3ccoc3)cc2n(-c2ccc([N+](=O)[O-])cc2)c1=O | Satisfied
* CS(=O)(=O)NCc1cccc(-c2ccc3cc(C#N)c(=O)n(-c4ccc([N+](=O)[O-])cc4)c3c2)c1 | Not satisfied
* N#Cc1cc2cc(OCCN3CCCC3)ccc2n(-c2ccc([N+](=O)[O-])cc2)c1=O | Not satisfied
* CCNCCCOc1ccc2cc(C#N)c(=O)n(-c3ccc([N+](=O)[O-])cc3)c2c1 | Satisfied
* N#Cc1cc2ccc(-c3ccc(C(=O)O)s3)cc2n(-c2ccc([N+](=O)[O-])cc2)c1=O | Not satisfied
* N#Cc1cc2ccc(-c3cccc(O)c3)cc2n(-c2ccc([N+](=O)[O-])cc2)c1=O | Satisfied

====

# System: MT4 CMV-EGFP cells
# experiment.summary: Cytotoxicity in mock-infected MT4 CMV-EGFP cells
# Type: cell-based, human
# condition.description: fluorescence reduced by 50%
Each entry below carries its recorded CC50.
readout.label: CC50

• CN(C)CCCNc1c(C#N)c(=O)n(-c2ccc([N+](=O)[O-])cc2)c2ccccc12 [compound 139] = 59.5 µM
• N#Cc1cc2ccc(-c3ccc(C(N)=O)cc3)cc2n(-c2ccc([N+](=O)[O-])cc2)c1=O [compound 35] = 22.6 µM
• N#Cc1c(N)c2cccnc2n(-c2ccc([N+](=O)[O-])cc2)c1=O [compound 129] = > 32 µM
• N#Cc1cc2ccc(-c3cc[nH]c3)cc2n(-c2ccc([N+](=O)[O-])cc2)c1=O [compound 44] = > 100 µM
• N#Cc1cc2ccc(-c3cn[nH]c3)cc2n(-c2ccc([N+](=O)[O-])cc2)c1=O [compound 48] = > 100 µM
• N#Cc1cc2ccc(OCCCO)cc2n(-c2ccc([N+](=O)[O-])cc2)c1=O [compound 76] = > 100 µM
• N#Cc1cc2cc3c(cc2n(-c2ccc([N+](=O)[O-])cc2)c1=O)OCO3 [compound 6] = > 100 µM
• N#Cc1cc2ccc(NCCN3CCOCC3)cc2n(-c2ccc([N+](=O)[O-])cc2)c1=O [compound 14] = > 32 µM
• Cc1ccc(-n2c(=O)c(C#N)c(N)c3ccc(-c4cc[nH]n4)cc32)cc1C#N [compound 124] = > 100 µM
• N#Cc1c(N)c2cc3c(cc2n(-c2ccc(Cl)nc2)c1=O)OCO3 [compound 117] = > 32 µM

====

# experiment.summary: Cytotoxicity in mock-infected MT4 CMV-EGFP cells
# Format: cell-based, human
# condition.description: human, fluorescence reduced by 50%
# Source text: Analogously, MT4 cells are engineered with GFP and the constitutional cytomegalovirus (CMV) promotor. This cell line is designated MT4 CMV-EGFP, and can be used for the in vitro evaluation of cytotoxicity of investigational compounds. In this cell line, GFP levels are comparably to those of infected MT4 LTR-EGFP cells. Cytotoxic investigational compounds reduce GFP levels of mock-infected MT4 CMV-EGFP cells. […]
readout.label: CC50 at 3 days

• N#Cc1cc2ccc(OP(=O)(O)O)cc2n(-c2ccc([N+](=O)[O-])cc2)c1=O [compound 70] = > 32 µM
• Cc1ccc(-n2c(=O)c(C#N)c(N)c3ccc(Br)cc32)cc1C#N [compound 121] = 55.2 µM
• COc1cc2cc(C#N)c(=O)n(-c3ccc([N+](=O)[O-])cc3)c2cc1OC [compound 93] = > 32 µM
• N#Cc1c(N)c2ccc(Br)cc2n(-c2ccc([N+](=O)[O-])cc2)c1=O [compound 118] = > 32 µM
• N#Cc1c(N)c2ccc(-c3cccs3)cc2n(-c2ccc([N+](=O)[O-])cc2)c1=O [compound 119] = > 100 µM
• Cc1ccc(-n2c(=O)c(C#N)cc3ccc(-c4cccc(CNC(=O)CN(C)C)c4)cc32)cc1C#N [compound 158] = 11.5 µM
• COc1ccc2c(N)c(C#N)c(=O)n(-c3ccc(C)c(C#N)c3)c2c1 [compound 145] = > 100 µM
• N#Cc1c(N)c2ccc(Cl)cc2n(-c2ccc(Cl)nc2)c1=O [compound 103] = 85.2 µM
• Cc1ccc(-n2c(=O)c(C#N)cc3ccc(NCCCN4CCCC4)cc32)cc1C#N [compound 157] = 52.7 µM
• Cc1ccc(-n2c(=O)c(C#N)c(N)c3ccc(-c4ccccn4)cc32)cc1C#N [compound 123] = > 100 µM
• N#Cc1cc2cc(O)c(O)cc2n(-c2ccc([N+](=O)[O-])cc2)c1=O [compound 94] = > 32 µM
• Cc1ccc(-n2c(=O)c(C#N)cc3ccc(-c4cc[nH]c4)cc32)cc1C#N [compound 150] = > 100 µM
• N#Cc1cc2ccc(-n3cccc3)cc2n(-c2ccc([N+](=O)[O-])cc2)c1=O [compound 25] = 97.2 µM
